# PROCEDURE_DETAILS: NCI Yeast Anticancer Drug Screen. Data for the mlh1 rad18 strain (AID 175)
# CONDITION_DESCRIPTION: S. cerevisiae mlh1 rad18 strain growth inhibition; at 50.0 µM; hits give high values
About 79,000 compounds went through this panel and 15% of them were active in at least one assay; those are over-represented in the sample as a whole.
MEASUREMENT_NAME: growth inhibition (%)
// return numeric value only (unit: %, not printed)

Sample answers from the record:
What the record says about CCCc1ccc(N)cc1 : growth inhibition is -15.7

What the record says about Cc1cc2nc3c(=O)[nH]c(=O)nc-3n(CC(O)C(O)C(O)C(O)CO)c2cc1C (configuration not stated) : growth inhibition is 23.2

What the record says about CCCC(CCC)(CCC)CCN(C)C : growth inhibition is -33.8

What the record says about Nc1ccc(O)c(C(=O)O)c1 : growth inhibition is 26.6

What the record says about C(CCN1CN(CCCCN2CCOCC2)CN(CCCCN2CCOCC2)C1)CN1CCOCC1 : growth inhibition is 29.6

***
What the record says about COc1cc2c(c3c1c(=O)c1ccccc1n3C)C=CC1(CCCCC1)O2 : growth inhibition is -7.4

What the record says about CCCCN(CCCC)C(=O)/C=C\C(=O)O : growth inhibition is 4.9

What the record says about Cc1cc(C)c(Br)cc1C : growth inhibition is -5.35

What the record says about C[n+]1c(C2(O)CCCCCCCCCCC2)sc2ccccc21 : growth inhibition is 34.4

What the record says about CCn1c(=O)c(C#N)c2n(CC)c3cc(C)c(C)cc3n2c1=O : growth inhibition is -20.4

What the record says about CC(C)CN(CC#N)CC(C)C : growth inhibition is -50

What the record says about COC1=C(OC)C(=O)C(Sc2ccc3ccccc3c2)=C(Cl)C1=O : growth inhibition is 91.1

What the record says about O=C(O)Cn1ccc(=O)c2ccc([N+](=O)[O-])cc21 : growth inhibition is -47.5

What the record says about N#CC(c1cccs1)C1CCCCC1 (configuration not stated) : growth inhibition is -1.3

What the record says about O=C(Nc1cccc(Cl)c1)ON1C(=O)C2C(C1=O)C1(Cl)C(Cl)C(Cl)C2(Cl)C1(Cl)Cl (configuration not stated) : growth inhibition is -16.1

What the record says about C[N+](C)(Cc1cccc(Cl)c1)c1nnn[n-]1 : growth inhibition is -9.5

What the record says about N#CC(NCCCNC(C#N)c1ccccc1)c1ccccc1 (configuration not stated) : growth inhibition is -18.4

---

# PROCEDURE_DETAILS: NCI Yeast Anticancer Drug Screen. Data for the bub3 strain (AID 167)
# CONDITION_DESCRIPTION: S. cerevisiae bub3 mutant strain, at 50.0 µM, hits give high values
Compounds without any hit were thinned out: in the full panel of roughly 79,000, 15% have a hit.
MEASUREMENT_NAME: growth inhibition (%)
// return numeric value only (unit: %, not printed)

Sample answers from the record:
What the record says about CSc1nc(N(C)C)c2[nH]c(C)nc2n1 : growth inhibition is 10.6

What the record says about CC(C)c1ccc(/C=C/C(=O)c2ccc(F)cc2)cc1 : growth inhibition is 5.05

What the record says about COC(=O)NC1C(=O)CCC(=O)C1C(N)=O (stereo not drawn) : growth inhibition is -0.3

What the record says about CCCOC(=O)Nc1cccc(Cl)c1 : growth inhibition is -9.35

What the record says about CC(=O)c1cc(C)c(C)cc1C : growth inhibition is 1.65

What the record says about CS(=O)(=O)c1nsc(N)n1 : growth inhibition is -0.1

What the record says about CCOC(=O)C1=C(C)NC(C)=C(C(=O)OCC)C1 : growth inhibition is 31.1

What the record says about COc1cc(/C=N\N=C(/C)c2ccc(C)cc2C)cc(OC)c1OC : growth inhibition is 24.9

What the record says about CN(C)c1ccc(/C=N/NC(=O)c2ccc(N)cc2)cc1 : growth inhibition is -2.4

What the record says about CCCC(=O)Oc1ccc(CC)cc1 : growth inhibition is 14.5

***
What the record says about CCCOC(=O)/C=C(\Cl)C(=O)OCCC : growth inhibition is -45.6

What the record says about Nc1cccc(S(=O)(=O)Nc2c(N)nc(SCC(=O)O)[nH]c2=O)c1 : growth inhibition is 11.9

What the record says about COc1ccc(/C=C/C(=O)C(C)(C)CN2CCCCC2)cc1 : growth inhibition is 36.5

Source of measurements: PubChem BioAssay (NCI)
